- Test system: S. enterica typhimurium tolC KO;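 further: active when median AUC fell below 0.1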
- protocol description: growth AUC normalised to DMSO control (median) (fraction of control); higher = less growth inhibition, active = hit call of the paper
- measurement setup: 20 µM
Counter-ions that a name gives are not always drawn.
Just give me one of these, please: active, inactive

Query :: Name the outcome recorded for CNCCCN1c2ccccc2CCc2ccccc21 [Desipramine hydrochloride] in the assay.
Result :: inactive

Query :: Name the outcome recorded for `Nc1ccc(S(=O)(=O)Nc2ccc(Cl)nn2)cc1` in the assay.
Result :: inactive

Query :: Name the outcome recorded for CCN(CC)CCNC(=O)c1cc(Cl)c(N)cc1OC [Metoclopramide monohydrochloride] in the assay.
Result :: inactive

Query :: Name the outcome recorded for CN1CCOC(c2ccccc2)c2ccccc2C1 (centres undefined) [Nefopam hydrochloride] in the assay.
Result :: inactive

Query :: Name the outcome recorded for C=CCOc1ccccc1OCC(O)CNC(C)C (centres undefined) [Oxprenolol hydrochloride] in the assay.
Result :: inactive

Query :: Name the outcome recorded for Cc1c(NC(C)C)c(=O)n(-c2ccccc2)n1C [Isopyrin hydrochloride] in the assay.
Result :: inactive

Query :: Name the outcome recorded for `CC(/C=C1\SC(=S)N(CC(=O)O)C1=O)=C\c1ccccc1` in the assay.
Result :: inactive

Query :: Name the outcome recorded for `C[C@H]1O[C@@H](O[C@H]2[C@@H](O)C[C@H](O[C@H]3[C@@H](O)C[C@H](O[C@H]4CC[C@@]5(C)[C@H](CC[C@@H]6[C@@H]5C[C@@H](O)[C@]5(C)[C@@H](C7=CC(=O)OC7)CC[C@]65O)C4)O[C@@H]3C)O[C@@H]2C)C[C@H](O)[C@@H]1O` in the assay.
Result :: inactive

Query :: Name the outcome recorded for CC1CS(=O)(=O)CCN1/N=C/c1ccc([N+](=O)[O-])o1 (centres undefined) in the assay.
Result :: inactive

Query :: Name the outcome recorded for `O=C(O)COc1nn(Cc2ccccc2)c2ccccc12` in the assay.
Result :: inactive

Query :: Name the outcome recorded for Cc1ccc(S(=O)(=O)NC(=O)NN2CC3CCCC3C2)cc1 (centres undefined) [Gliclazide] in the assay.
Result :: inactive

Query :: Name the outcome recorded for `Cc1ccc(-c2cc(C(F)(F)F)nn2-c2ccc(S(N)(=O)=O)cc2)cc1` in the assay.
Result :: inactive

Query :: Name the outcome recorded for CCCCOc1cc(C(=O)OCCN(CC)CC)ccc1N [Benoxinate hydrochloride] in the assay.
Result :: inactive

Query :: Name the outcome recorded for CC1CCc2cc(F)cc3c(=O)c(C(=O)O)cn1c23 (centres undefined) in the assay.
Result :: active

Query :: Name the outcome recorded for CN1CCC(OC(c2ccccc2)c2ccccc2)CC1 [Diphenylpyraline hydrochloride] in the assay.
Result :: inactive

Query :: Name the outcome recorded for Nc1ccc(S(=O)(=O)NC(=O)c2ccccc2)cc1 [Sulfabenzamide] in the assay.
Result :: inactive

Query :: Name the outcome recorded for Cc1ccc(S(=O)(=O)NC(=O)NN2CCCCCC2)cc1 [Tolazamide] in the assay.
Result :: inactive

Query :: Name the outcome recorded for `CC(=O)OC[C@H]1O[C@@H](n2ncc(=O)[nH]c2=O)[C@H](OC(C)=O)[C@@H]1OC(C)=O` in the assay.
Result :: inactive

Query :: Name the outcome recorded for `Cc1cc2nc3c(=O)[nH]c(=O)nc-3n(C[C@H](O)[C@H](O)[C@H](O)CO)c2cc1C` in the assay.
Result :: inactive

Query :: Name the outcome recorded for CCCCCNC(=N)N/N=C/c1c[nH]c2ccc(OC)cc12 [Tegaserod maleate] in the assay.
Result :: inactive

Query :: Name the outcome recorded for `Cc1c(C(=O)NN2CCCCC2)nn(-c2ccc(Cl)cc2Cl)c1-c1ccc(Cl)cc1` in the assay.
Result :: inactive

Query :: Name the outcome recorded for `O=C1NCCN1c1ncc([N+](=O)[O-])s1` in the assay.
Result :: active

Query :: Name the outcome recorded for `O=C(O)CCCC[C@@H]1SC[C@@H]2NC(=O)N[C@@H]21` in the assay.
Result :: inactive

Query :: Name the outcome recorded for `Cn1c(=O)c2c(ncn2CC(=O)O)n(C)c1=O` in the assay.
Result :: inactive

###

- Tested on: Vibrio cholerae
- protocol description: growth AUC normalised to DMSO control (fraction of control); higher = less growth inhibition, active = hit call of the paper
- measurement setup: 20 µM
Structures can show the parent of a compound that is named as a salt.
readout name: growth AUC normalised to DMSO control
Respond numerically, and do not add a unit to the figure.

Query :: Please look at this compound and report its growth AUC normalised to DMSO control: CC(N)C12CC3CC(CC(C3)C1)C2 (stereo not drawn) [Rimantadine hydrochloride]
Result :: 0.985

Query :: Please look at this compound and report its growth AUC normalised to DMSO control: `N[C@@H](Cc1cc(I)c(Oc2ccc(O)c(I)c2)c(I)c1)C(=O)O`
Result :: 0.981

Query :: Please look at this compound and report its growth AUC normalised to DMSO control: CC(C)(C)NCC(O)COc1cccc2c1CCC(=O)N2 (stereo not drawn) [Carteolol hydrochloride]
Result :: 0.993

Query :: Please look at this compound and report its growth AUC normalised to DMSO control: CCOC(=O)C1=C(C)NC(C)=C(C(=O)OC)C1c1cccc([N+](=O)[O-])c1 (stereo not drawn)
Result :: 1.06

Query :: Please look at this compound and report its growth AUC normalised to DMSO control: CC(=O)OCC(=O)[C@@]12OC3(CCCC3)O[C@@H]1C[C@H]1[C@@H]3CCC4=CC(=O)C=C[C@]4(C)[C@@]3(F)[C@@H](O)C[C@@]12C [Amcinonide]
Result :: 1.04

Query :: Please look at this compound and report its growth AUC normalised to DMSO control: `CN[C@H]1CC[C@@H](c2ccc(Cl)c(Cl)c2)c2ccccc21`
Result :: 0.928

Query :: Please look at this compound and report its growth AUC normalised to DMSO control: `CC#C[C@]1(O)CC[C@H]2[C@@H]3CCC4=CC(=O)CCC4=C3[C@@H](c3ccc(N(C)C)cc3)C[C@@]21C`
Result :: 0.994

Query :: Please look at this compound and report its growth AUC normalised to DMSO control: `C[C@]12C[C@H](O)[C@H]3[C@@H](CCC4=CC(=O)CC[C@@]43C)[C@@H]1CC[C@@H]2C(=O)CO`
Result :: 0.984

###

- System: Yersinia pseudotuberculosis
- protocol description: growth AUC normalised to DMSO control (fraction of control); higher = less growth inhibition, active = hit call of the paper
- measurement setup: 20 µM
Counter-ions that a name gives are not always drawn.
readout name: growth AUC normalised to DMSO control
Respond numerically, and do not add a unit to the figure.

Query :: Please look at this compound and report its growth AUC normalised to DMSO control: NC12CC3CC(CC(C3)C1)C2 [Adamantamine fumarate]
Result :: 1

Query :: Please look at this compound and report its growth AUC normalised to DMSO control: O=C(OCCOCCO)c1ccccc1Nc1cccc(C(F)(F)F)c1 [Etofenamate]
Result :: 0.991

Query :: Please look at this compound and report its growth AUC normalised to DMSO control: CC(C)CC(=O)N[C@H](C(=O)N[C@H](C(=O)N[C@@H](CC(C)C)[C@@H](O)CC(=O)N[C@@H](C)C(=O)N[C@@H](CC(C)C)[C@@H](O)CC(=O)O)C(C)C)C(C)C [Pepstatin A]
Result :: 1

Query :: Please look at this compound and report its growth AUC normalised to DMSO control: C[C@@H]1C[C@H]2[C@@H]3C[C@H](F)C4=CC(=O)C=C[C@]4(C)[C@@]3(F)[C@@H](O)C[C@]2(C)[C@@]1(O)C(=O)CO [Flumethasone]
Result :: 0.993

Query :: Please look at this compound and report its growth AUC normalised to DMSO control: CC(C)NC(=N)NC(=N)Nc1ccc(Cl)cc1 [Proguanil hydrochloride]
Result :: 0.992

Query :: Please look at this compound and report its growth AUC normalised to DMSO control: Nc1nc2c(ncn2COCCO)c(=O)[nH]1 [Acyclovir]
Result :: 0.995

Query :: Please look at this compound and report its growth AUC normalised to DMSO control: CCCSc1ccc2[nH]c(NC(=O)OC)nc2c1 [Albendazole]
Result :: 0.993

Query :: Please look at this compound and report its growth AUC normalised to DMSO control: CC[C@H](C)C(=O)O[C@H]1CCC=C2C=C[C@H](C)[C@H](CC[C@@H]3C[C@@H](O)CC(=O)O3)[C@H]21 [Mevastatin]
Result :: 0.974

Query :: Please look at this compound and report its growth AUC normalised to DMSO control: CC(C)C(=O)c1c(C(C)C)nn2ccccc12 [Ibudilast]
Result :: 0.994

Query :: Please look at this compound and report its growth AUC normalised to DMSO control: Nc1nc2n[nH]nc2c(=O)[nH]1 [Azaguanine-8]
Result :: 0.996

Query :: Please look at this compound and report its growth AUC normalised to DMSO control: CCCCC(=O)O[C@H]1CC[C@H]2[C@@H]3CCc4cc(O)ccc4[C@H]3CC[C@]12C [Estradiol Valerate]
Result :: 1.01
